- experimentalTarget: A2 receptor (Rattus norvegicus, UniProt P30543)
- Construct: endogenous in cells
- Sequence (P30543 whole entry): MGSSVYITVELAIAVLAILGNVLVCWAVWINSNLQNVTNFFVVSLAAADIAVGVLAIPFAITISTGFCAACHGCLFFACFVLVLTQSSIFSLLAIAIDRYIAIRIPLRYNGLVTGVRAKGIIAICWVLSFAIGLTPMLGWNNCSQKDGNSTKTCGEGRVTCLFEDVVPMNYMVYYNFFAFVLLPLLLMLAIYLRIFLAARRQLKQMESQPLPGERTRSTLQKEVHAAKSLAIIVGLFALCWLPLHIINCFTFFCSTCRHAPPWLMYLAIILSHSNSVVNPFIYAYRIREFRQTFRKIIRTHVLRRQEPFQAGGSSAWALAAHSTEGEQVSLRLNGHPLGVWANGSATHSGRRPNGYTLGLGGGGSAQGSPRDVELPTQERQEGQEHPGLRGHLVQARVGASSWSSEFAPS
- methodDescription: A2 receptor binding with [3H]NECA in PC12 cell membranes
- protocolConditions: mean ± SEM (n), read-out: Ki, PC-12
metricName: pKi
Scale note: pKi = -log10(concentration in M).

Name the recorded pKi of the compound listed here: CCCn1c(=O)c2[nH]c(C3CC4CC3C3OC43)nc2n(CCC)c1=O (racemic) [ENX]
4.93

---

- experimentalTarget: A1 receptor (Cavia porcellus, UniProt P47745)
- Construct: isolated perfused guinea pig heart; from tissue; host or cells: isolated perfused guinea pig heart
- Sequence (P47745 whole entry, the tested form may be a part): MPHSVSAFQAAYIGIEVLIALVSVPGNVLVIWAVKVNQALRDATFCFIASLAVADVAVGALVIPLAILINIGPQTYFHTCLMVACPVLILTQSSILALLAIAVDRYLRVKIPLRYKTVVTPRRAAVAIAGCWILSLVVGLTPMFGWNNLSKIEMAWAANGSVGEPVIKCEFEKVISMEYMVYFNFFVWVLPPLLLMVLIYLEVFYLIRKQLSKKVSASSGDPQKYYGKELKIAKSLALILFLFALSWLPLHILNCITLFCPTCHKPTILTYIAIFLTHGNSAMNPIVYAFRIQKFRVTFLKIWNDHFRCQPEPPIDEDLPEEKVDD
- methodDescription: A1 receptor binding with [3H]CPX in brain membranes (Table 4)
- Design: species or system guinea pig
metricName: Ki (nM)
Numbers only here, please. The scale is nM.

Name the recorded Ki of the compound listed here: CCCn1c(=O)c2[nH]c(C3CC4CC3C3OC43)nc2n(CCC)c1=O (racemic)
0.45

---

# maps each entry to its Ki
- experimentalTarget: A2 adenosine receptor (Cavia porcellus, UniProt P46616)
- Sequence (P46616 whole entry): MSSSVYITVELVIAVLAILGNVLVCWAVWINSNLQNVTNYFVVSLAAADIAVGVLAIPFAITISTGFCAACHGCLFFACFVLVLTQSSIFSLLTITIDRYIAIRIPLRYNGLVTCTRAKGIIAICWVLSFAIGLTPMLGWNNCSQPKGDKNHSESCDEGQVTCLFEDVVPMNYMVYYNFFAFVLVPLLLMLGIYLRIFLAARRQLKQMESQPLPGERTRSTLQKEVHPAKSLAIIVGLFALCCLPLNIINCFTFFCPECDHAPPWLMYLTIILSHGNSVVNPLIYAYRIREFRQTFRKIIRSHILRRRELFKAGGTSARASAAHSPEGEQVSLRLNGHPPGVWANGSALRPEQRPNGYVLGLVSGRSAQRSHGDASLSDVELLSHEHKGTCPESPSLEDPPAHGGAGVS
Numbers only here, please. The scale is nM.

compound: CCCn1c(=O)c2[nH]c(C3CC4CC3C3OC43)nc2n(CCC)c1=O (racemic)
measured: 360

Next item in the queue.
Specify the recorded Ki for CCCn1c(=O)c2[nH]c(C34CC5CC(CC3C5)C4)nc2n(CCC)c1=O , system: A2 adenosine receptor (Cavia porcellus, UniProt P46616).
22

---

- experimentalTarget: A1 receptor (Mesocricetus auratus, UniProt A0A1U8BVR4)
- Sequence (A0A1U8BVR4 1-326): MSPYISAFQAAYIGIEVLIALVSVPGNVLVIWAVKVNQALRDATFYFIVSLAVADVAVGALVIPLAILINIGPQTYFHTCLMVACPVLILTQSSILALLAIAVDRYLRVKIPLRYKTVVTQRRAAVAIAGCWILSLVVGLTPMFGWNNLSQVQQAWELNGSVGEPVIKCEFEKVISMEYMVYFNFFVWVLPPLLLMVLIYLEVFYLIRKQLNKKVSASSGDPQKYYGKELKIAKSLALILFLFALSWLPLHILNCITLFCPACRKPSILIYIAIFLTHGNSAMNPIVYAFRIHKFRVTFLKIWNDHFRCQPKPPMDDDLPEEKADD
- methodDescription: A1 receptor binding with [3H]CPX in intact DDT1 MF2 cells
- protocolConditions: read-out: Ki, DDT1 MF2
metricName: pKi
Scale note: pKi = -log10(concentration in M).

Name the recorded pKi of the compound listed here: CCCn1c(=O)c2[nH]c(C34CC5CC(CC3C5)C4)nc2n(CCC)c1=O
9.74

---

- experimentalTarget: A2 receptor (Cavia porcellus)
- Construct: isolated perfused guinea pig heart
- methodDescription: Antagonism of A2 receptor-mediated coronary vasodilation (coronary conductance) caused by adenosine, isolated perfused heart
metricName: IC50 (µM)
Numbers only here, please. The scale is µM.

Name the recorded IC50 of the compound listed here: CCCn1c(=O)c2[nH]c(C34CC5CC(CC3C5)C4)nc2n(CCC)c1=O
7.1

---

Record set of pIC50 for target or system UniProtKB P25099.
Sequence (P25099 whole entry): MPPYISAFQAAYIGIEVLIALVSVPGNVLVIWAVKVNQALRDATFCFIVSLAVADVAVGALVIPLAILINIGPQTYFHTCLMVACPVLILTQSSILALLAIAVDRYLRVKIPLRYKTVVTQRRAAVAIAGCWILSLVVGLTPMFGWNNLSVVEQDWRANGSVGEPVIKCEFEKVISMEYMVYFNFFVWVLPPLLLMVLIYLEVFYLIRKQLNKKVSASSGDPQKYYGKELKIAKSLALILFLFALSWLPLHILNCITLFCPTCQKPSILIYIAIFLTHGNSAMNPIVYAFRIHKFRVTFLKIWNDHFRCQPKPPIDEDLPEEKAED
Scale note: pIC50 = -log10(concentration in M).

Use these answered entries as a reference point.
molecule: CCCn1c(=O)c2[nH]c([C@@H]3C[C@H]4C[C@@H]3[C@@H]3O[C@H]43)nc2n(CCC)c1=O
pIC50: 8.57
//
molecule: CCCn1c(=O)c2[nH]c(C3CC4CC3C3OC43)nc2n(CCC)c1=O (racemic)
pIC50: 8.78

Next item in the queue.
Specify the recorded pIC50 for CCCn1c(=O)c2[nH]c([C@H]3C[C@@H]4C[C@H]3[C@H]3O[C@@H]43)nc2n(CCC)c1=O , system: UniProtKB P25099.
8.94
